Exercise: state measured pIC50 for each of the compounds provided.
- target-under-test: bovine cardiac myosin (Bos taurus, UniProt Q9BE39)
- Construct: The source of cardiac myosin was from bovine heart in the form of skinned myofibrils; from tissue; host or cells: bovine heart, skinned myofibrils
- Sequence (Q9BE39 whole entry): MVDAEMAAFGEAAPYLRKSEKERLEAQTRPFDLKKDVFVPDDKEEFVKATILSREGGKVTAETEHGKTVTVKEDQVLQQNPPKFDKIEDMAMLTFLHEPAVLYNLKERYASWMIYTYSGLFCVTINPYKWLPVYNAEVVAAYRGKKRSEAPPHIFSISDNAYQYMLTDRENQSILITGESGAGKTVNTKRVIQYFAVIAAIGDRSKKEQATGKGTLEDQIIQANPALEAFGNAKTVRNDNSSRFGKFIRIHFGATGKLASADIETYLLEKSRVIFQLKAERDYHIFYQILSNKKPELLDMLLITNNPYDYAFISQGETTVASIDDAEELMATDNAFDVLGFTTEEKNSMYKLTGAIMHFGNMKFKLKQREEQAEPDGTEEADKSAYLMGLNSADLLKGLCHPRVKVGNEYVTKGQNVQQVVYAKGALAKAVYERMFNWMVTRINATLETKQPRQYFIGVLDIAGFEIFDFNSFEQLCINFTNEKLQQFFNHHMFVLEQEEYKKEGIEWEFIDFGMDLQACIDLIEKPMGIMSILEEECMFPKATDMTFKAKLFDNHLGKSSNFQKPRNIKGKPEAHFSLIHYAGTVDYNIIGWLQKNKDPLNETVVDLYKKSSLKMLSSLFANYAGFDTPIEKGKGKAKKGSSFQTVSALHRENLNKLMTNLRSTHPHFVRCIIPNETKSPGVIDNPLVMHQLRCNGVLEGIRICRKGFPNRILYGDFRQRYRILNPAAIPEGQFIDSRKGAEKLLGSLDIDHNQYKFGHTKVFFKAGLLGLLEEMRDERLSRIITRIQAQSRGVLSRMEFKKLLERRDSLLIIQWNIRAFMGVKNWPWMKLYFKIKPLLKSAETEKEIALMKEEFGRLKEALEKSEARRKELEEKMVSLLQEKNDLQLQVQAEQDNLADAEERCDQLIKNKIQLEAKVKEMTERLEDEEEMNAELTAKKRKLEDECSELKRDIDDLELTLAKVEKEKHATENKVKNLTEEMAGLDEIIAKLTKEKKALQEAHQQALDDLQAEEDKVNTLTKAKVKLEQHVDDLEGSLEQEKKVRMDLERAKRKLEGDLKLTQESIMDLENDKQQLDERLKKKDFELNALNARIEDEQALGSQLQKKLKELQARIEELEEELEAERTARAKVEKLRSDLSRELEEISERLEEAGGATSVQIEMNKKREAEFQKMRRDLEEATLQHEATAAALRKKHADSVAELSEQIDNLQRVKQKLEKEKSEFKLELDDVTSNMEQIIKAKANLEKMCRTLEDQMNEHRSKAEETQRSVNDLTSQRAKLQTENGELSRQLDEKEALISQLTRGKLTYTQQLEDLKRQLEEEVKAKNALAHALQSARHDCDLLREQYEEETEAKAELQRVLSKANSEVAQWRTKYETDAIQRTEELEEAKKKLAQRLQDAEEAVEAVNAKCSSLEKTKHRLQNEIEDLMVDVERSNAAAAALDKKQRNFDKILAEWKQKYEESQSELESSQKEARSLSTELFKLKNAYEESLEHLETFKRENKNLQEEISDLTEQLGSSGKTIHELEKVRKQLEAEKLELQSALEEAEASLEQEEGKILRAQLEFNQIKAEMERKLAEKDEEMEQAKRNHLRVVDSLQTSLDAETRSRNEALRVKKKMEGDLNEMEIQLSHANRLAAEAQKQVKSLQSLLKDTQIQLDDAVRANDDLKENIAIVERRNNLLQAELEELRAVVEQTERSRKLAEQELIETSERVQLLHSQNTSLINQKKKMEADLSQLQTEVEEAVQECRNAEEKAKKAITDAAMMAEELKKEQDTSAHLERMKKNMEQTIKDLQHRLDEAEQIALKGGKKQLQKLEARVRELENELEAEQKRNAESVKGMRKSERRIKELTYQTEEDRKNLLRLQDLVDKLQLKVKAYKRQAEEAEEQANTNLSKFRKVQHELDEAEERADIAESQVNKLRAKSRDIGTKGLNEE
- Sequence (P85100 whole entry partner): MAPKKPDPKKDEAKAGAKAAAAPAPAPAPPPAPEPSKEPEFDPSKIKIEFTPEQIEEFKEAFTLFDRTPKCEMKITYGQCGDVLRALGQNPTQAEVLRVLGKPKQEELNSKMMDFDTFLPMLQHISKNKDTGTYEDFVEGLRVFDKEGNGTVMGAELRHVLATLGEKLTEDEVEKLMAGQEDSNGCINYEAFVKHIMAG
- Sequence (Q3SZE5 whole entry partner): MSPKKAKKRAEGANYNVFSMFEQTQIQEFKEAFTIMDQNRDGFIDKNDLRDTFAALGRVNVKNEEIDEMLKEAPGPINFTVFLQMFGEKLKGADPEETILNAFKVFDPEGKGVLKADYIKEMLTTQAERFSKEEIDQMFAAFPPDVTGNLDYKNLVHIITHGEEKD
- experiment-description: Myosin inhibition assay (PK/LDH-coupled ATPase, bovine cardiac myofibrils)
- Type: biochemical
- cond: bovine cardiac myofibrils, calcium giving 75% activation (pCa75); read-out: Biochemical Activity (pCa75)
pIC50: −log10 of the molar value.

Below, 2 compounds whose answers are already recorded.
smiles-code	pIC50
C[C@H](Nc1cc(=O)n(CC(F)(F)F)c(=O)[nH]1)c1ccccc1	4.82 to 6.00
CC(C)n1c(=O)cc(N[C@@H](CO)c2ccccc2)[nH]c1=O	> 6.00

I am curious: what pIC50 value has been reported for "COc1cccc([C@H](C)Nc2cc(=O)n(C3CCOCC3)c(=O)[nH]2)c1" ?
> 6.00

---

Exercise: state measured IC50 for each of the compounds provided.
- target-under-test: bovine cardiac myosin (Bos taurus, UniProt Q9BE39)
- Construct: The source of cardiac myosin was from bovine heart in the form of skinned myofibrils; from tissue; host or cells: bovine heart, skinned myofibrils
- experiment-description: Myosin inhibition assay (PK/LDH-coupled ATPase, bovine cardiac myofibrils)
- Format: biochemical
- cond: bovine cardiac myofibrils, calcium giving 50% activation (pCa50); read-out: Biochemical Activity (pCa50)

Below, 5 compounds whose answers are already recorded.
smiles-code	result
CCn1c(=O)cc(N[C@@H](C)c2cccc(C(F)(F)F)c2)[nH]c1=O	< 1000 nM
CCCn1c(=O)cc(N[C@@H](C)c2ccccc2)[nH]c1=O	1000 to 15000 nM
CCCn1c(=O)cc(N[C@@H](C)c2cccc(Cl)c2)[nH]c1=O	< 1000 nM
CCCn1c(=O)cc(N[C@@H](C)c2cccc(F)c2)[nH]c1=O	1000 to 15000 nM
CC(C)n1c(=O)cc(N[C@@H](C)c2ccc(O)cc2)[nH]c1=O	< 1000 nM

Report IC50 for each item below.
1. CCCn1c(=O)cc(N[C@@H](C)c2cccc(C(F)(F)F)c2)[nH]c1=O
2. C[C@H](Nc1cc(=O)n(C2CCC(F)(F)CC2)c(=O)[nH]1)c1ccccc1

< 1000 nM
< 1000 nM
